target: STAT3 (Homo sapiens); construct: plasmid pSTAT3-TA-luc), which contains a stably operating STAT3 promoter; endogenous in cells; assay: STAT3 reporter gene assay (luciferase), LNCaP stable cell line (pSTAT3-TA-luc), IL-6 stimulation; assay type: cell-based
Sequence (P40763 whole entry): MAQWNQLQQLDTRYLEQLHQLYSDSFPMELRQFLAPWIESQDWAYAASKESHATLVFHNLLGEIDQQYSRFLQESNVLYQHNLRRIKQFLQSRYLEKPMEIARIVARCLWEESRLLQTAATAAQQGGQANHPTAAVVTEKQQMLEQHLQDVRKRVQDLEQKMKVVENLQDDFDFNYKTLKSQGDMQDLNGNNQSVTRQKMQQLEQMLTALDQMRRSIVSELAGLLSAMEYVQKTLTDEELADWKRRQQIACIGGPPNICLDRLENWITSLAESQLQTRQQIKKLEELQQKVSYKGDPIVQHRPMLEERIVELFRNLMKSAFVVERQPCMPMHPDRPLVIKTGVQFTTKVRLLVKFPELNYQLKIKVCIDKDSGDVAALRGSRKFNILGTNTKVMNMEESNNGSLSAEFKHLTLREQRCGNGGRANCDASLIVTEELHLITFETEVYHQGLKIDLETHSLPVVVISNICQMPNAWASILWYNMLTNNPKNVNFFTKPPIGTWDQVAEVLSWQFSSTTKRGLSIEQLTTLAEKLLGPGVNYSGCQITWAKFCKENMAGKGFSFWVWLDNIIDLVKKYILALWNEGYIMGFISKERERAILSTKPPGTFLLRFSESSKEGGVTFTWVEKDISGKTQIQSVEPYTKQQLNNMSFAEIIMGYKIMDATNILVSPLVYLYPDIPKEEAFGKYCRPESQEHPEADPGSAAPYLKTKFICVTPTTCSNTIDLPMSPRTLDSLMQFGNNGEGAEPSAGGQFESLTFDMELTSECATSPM
experimental_readout: log10 of IC50 (log10 of the value in µM)

C#Cc1cc(NC(=O)c2cc3cc(NS(C)(=O)=O)ccc3s2)cc(C(C)(C)c2ccc(F)cc2)c1 [Example 108] = -1.11
CC(C)(c1ccc(F)cc1)c1cc(Br)cc(NC(=O)c2cc3cc(NS(C)(=O)=O)ccc3s2)c1 [Example 32] = -1.47
CC(C)Oc1cc(-c2cnn(C)c2)cc(C(C)(C)c2cc(Cl)cc(NC(=O)c3cc4cc(NS(C)(=O)=O)ccc4s3)c2)c1 [Example 143] = -0.54
CS(=O)(=O)Nc1ccc2cc(C(=O)Nc3cccc(C4(c5ccccc5)CC4)c3)[nH]c2c1 [Example 422] = -0.12
CCOc1cc(OC(F)(F)F)cc(C(C)(C)c2cc(Br)cc(NC(=O)c3cc4nc(NS(C)(=O)=O)ccc4s3)c2)c1 [Example 60] = -1.20
Cc1c(C(=O)Nc2cc(Br)cc(-c3ccc(F)cc3F)c2)sc2ccc(NS(C)(=O)=O)cc12 [Example 311] = 0.76
CC(C)Oc1cc(OC(F)(F)F)cc(C(C)(C)c2cc(Cl)cc(NC(=O)c3cc4cc(NS(=O)(=O)CC5CCCO5)ccc4s3)c2)c1 (centres unmarked) [Example 197] = -1.92
CC(C)Oc1cc(CN2CCN(c3nnc(C(C)C)o3)CC2)cc(C(C)(C)c2cc(Cl)cc(NC(=O)c3cc4cc(NS(C)(=O)=O)ccc4s3)c2)c1 [Example 135] = -0.85
CN(C(=O)c1cc2ccc(NS(C)(=O)=O)cc2[nH]1)c1cccc(-c2ccc(F)cc2F)c1 [Example 280] = 0.23
CS(=O)(=O)Nc1ccc2cc(C(=O)Nc3cccc(-c4ncccc4C(F)(F)F)c3)[nH]c2c1 [Example 290] = 0.85
CCOc1cc(OC(F)(F)F)cc(C(C)(C)c2cc(Cl)cc(NC(=O)c3cc4ccc(NS(C)(=O)=O)cc4[nH]3)c2)c1 [Example 59] = -1.68
CS(=O)(=O)Nc1ccc2cc(C(=O)Nc3cccc(S(=O)(=O)c4cccc(OC(F)(F)F)c4)c3)[nH]c2c1 [Example 396] = 0.40
COc1cc(OC(F)(F)F)cc(-c2cc(Cl)cc(NC(=O)c3cc4cc(NS(=O)(=O)C5CCOC5)ccc4s3)c2)c1 (centres unmarked) [Example 328] = -0.47

###

test system: HEL92.1.7; assay: Cell growth inhibition assay, blood cancer cell line HEL92.1.7; format: cell-based; conditions: Homo sapiens, HEL 92.1.7, HEL92.1.7 blood cancer cell line
experimental_readout: IC50 (µM)

CC(C)Oc1cc(OC(F)(F)F)cc(C(C)(C)c2cc(Cl)cc(NC(=O)c3nc4cc(NS(C)(=O)=O)ccc4s3)c2)c1 = 0.34
CC(C)(c1cc(Br)cc(NC(=O)c2cc3cc(NS(C)(=O)=O)ccc3s2)c1)c1cc(CN2CCN(C3COC3)CC2)cc(OC(F)(F)C(F)F)c1 = 1.05

###

Parameter: log10 IC50. Scope: all listed entries.
system: DU-145; test: Cell growth inhibition assay, prostate cancer cell line DU-145; format: cell-based; settings: Homo sapiens, DU-145 prostate cancer cell line
experimental_readout: log10 IC50 (log10 of the value in µM)

CN(C)CCOc1cc(OC(F)(F)F)cc(C(C)(C)c2cc(Cl)cc(NC(=O)c3cc4cc(NS(C)(=O)=O)ccc4s3)c2)c1 = -0.70
CC(C)(c1cccc(Cn2ccnc2)c1)c1cc(Br)cc(NC(=O)c2cc3cc(NS(C)(=O)=O)ccc3s2)c1 = 0.34
COc1cccc(Oc2cc(Cl)cc(NC(=O)c3cc4cc(NS(C)(=O)=O)ccc4s3)c2)c1 = -0.36
CC(C)Oc1cc(N2CCOCC2)cc(C(C)(C)c2cc(Cl)cc(NC(=O)c3cc4cc(NS(C)(=O)=O)ccc4s3)c2)c1 = -1.22
CN(c1ccc(Cl)cc1)c1cc(Cl)cc(NC(=O)c2cc3cc(NS(C)(=O)=O)c(Cl)cc3s2)c1 = -1.59
CCOc1cc(OC(F)(F)F)cc(C(C)(C)c2cc(Br)cc(NC(=O)c3cc4nc(NS(C)(=O)=O)ccc4s3)c2)c1 = -0.77
CS(=O)(=O)Nc1ccc2sc(C(=O)Nc3cc(Br)cc(S(=O)(=O)N4CCC(F)(F)CC4)c3)cc2c1 = -0.02
